Hey, just so you know, these numbers are from ChEMBL document CHEMBL1961873.

Molecular target: Tyrosine-protein kinase SYK (Homo sapiens) (UniProt P43405);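 also: reported percentages are mean inhibition values for SYK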
Conditions: at 0.1 µM
reportedEndpoint: inhibition
A bare number is not enough; add the unit after it.

Example entries and their recorded answers appear below.
- smilesStr: "COc1cccc(-n2ncc3c(N/N=C/c4ccc(F)cc4)ncnc32)c1"
  inhibition: "-4.34%"
- smilesStr: "COC(=O)Nc1nc2ccc(S(=O)(=O)c3ccc(NC(=O)Nc4cc(C(F)(F)F)ccc4F)cc3)cc2[nH]1"
  inhibition: "1.38%"

Moving on to the next compound.
So, "Fc1cccc(COc2ccc(Nc3ncnc4sc(-c5ccco5)cc34)cc2Cl)c1" ? Its inhibition was -3.2%

---

Target: Tyrosine-protein kinase Fer (Homo sapiens) (UniProt P16591)
Sequence (P16591 whole entry, looked up): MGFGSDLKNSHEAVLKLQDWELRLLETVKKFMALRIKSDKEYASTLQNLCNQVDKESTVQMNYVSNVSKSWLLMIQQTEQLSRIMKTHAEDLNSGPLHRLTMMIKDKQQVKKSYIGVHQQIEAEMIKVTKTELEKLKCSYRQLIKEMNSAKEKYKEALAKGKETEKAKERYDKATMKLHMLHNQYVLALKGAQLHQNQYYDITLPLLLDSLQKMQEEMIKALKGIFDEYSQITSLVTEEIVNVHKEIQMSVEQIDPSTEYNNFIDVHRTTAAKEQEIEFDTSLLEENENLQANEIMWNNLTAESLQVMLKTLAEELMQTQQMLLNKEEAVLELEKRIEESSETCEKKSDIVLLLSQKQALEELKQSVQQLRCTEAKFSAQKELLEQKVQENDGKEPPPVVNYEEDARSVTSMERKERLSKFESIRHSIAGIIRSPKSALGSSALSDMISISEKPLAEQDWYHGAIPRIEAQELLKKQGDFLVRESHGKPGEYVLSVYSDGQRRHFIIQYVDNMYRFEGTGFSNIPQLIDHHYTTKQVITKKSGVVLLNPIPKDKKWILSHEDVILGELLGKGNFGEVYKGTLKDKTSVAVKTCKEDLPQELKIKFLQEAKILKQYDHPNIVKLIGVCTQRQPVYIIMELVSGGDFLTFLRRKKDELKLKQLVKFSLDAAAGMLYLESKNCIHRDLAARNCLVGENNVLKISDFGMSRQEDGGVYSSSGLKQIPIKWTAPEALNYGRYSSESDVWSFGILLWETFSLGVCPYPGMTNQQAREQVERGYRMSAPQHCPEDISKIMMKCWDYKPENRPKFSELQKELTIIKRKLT
Conditions: at 1 µM
Description: GSK_PKIS: FER mean inhibition at 1 uM [Nanosyn]
Each entry gets label 0 if its inhibition stays under 9%, and label 1 if its inhibition is 9% or above.

# example entries with known answers
- smilesStr: "Cc1ccc2c(-c3ccnc(Nc4ccccc4)n3)c(-c3ccc(F)cc3)nn2n1"
  measuredOn: "Tyrosine-protein kinase Fer (Homo sapiens) (UniProt P16591)"
  cat: "label 0"
- smilesStr: "COc1cc(N2CCN(C(C)C)CC2)ccc1Nc1nc(Nc2ccc(F)cc2C(N)=O)c2cc[nH]c2n1"
  measuredOn: "Tyrosine-protein kinase Fer (Homo sapiens) (UniProt P16591)"
  cat: "label 1"
- smilesStr: "Cc1cccc2c1NC(=O)/C2=N\\Nc1ccc(S(N)(=O)=O)cc1"
  measuredOn: "Tyrosine-protein kinase Fer (Homo sapiens) (UniProt P16591)"
  cat: "label 0"
- smilesStr: "Fc1ccc(-c2nn3ncccc3c2-c2ccnc(Nc3ccc4c(c3)OCCO4)n2)cc1"
  measuredOn: "Tyrosine-protein kinase Fer (Homo sapiens) (UniProt P16591)"
  cat: "label 1"

Input line: For this molecule, is measured inhibition 9% or higher? "COc1ccc2c(-c3ccnc(Nc4cccc(OC(F)(F)F)c4)n3)cnn2n1"
Output line: label 1

Input line: For this molecule, is measured inhibition 9% or higher? "COc1cccc(-n2ncc3c(N/N=C/c4ccc(F)cc4)ncnc32)c1"
Output line: label 0

---

Molecular target: Insulin receptor (Homo sapiens) (UniProt P06213);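 also: reported values are averages of replicate inhibition measurements against the insulin receptor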
Sequence (P06213 28-758 limits assumed): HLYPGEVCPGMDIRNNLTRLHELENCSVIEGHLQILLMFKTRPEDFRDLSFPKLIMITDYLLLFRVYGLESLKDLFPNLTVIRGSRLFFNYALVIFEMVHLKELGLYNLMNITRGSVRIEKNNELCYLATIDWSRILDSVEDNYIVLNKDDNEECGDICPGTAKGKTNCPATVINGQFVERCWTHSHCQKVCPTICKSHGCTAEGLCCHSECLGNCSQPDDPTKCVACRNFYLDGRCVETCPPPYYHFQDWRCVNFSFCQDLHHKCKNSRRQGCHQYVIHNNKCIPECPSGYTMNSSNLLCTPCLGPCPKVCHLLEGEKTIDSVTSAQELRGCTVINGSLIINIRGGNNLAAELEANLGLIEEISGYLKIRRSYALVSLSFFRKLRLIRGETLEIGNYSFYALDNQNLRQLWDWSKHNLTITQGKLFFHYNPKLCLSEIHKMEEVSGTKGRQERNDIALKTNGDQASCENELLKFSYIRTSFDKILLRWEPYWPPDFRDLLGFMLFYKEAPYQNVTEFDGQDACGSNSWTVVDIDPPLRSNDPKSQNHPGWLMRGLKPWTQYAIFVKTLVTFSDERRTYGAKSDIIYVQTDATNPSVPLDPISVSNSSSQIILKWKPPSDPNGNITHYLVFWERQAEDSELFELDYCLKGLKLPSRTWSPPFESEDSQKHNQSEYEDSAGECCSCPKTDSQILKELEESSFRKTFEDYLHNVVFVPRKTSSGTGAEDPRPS
Sequence (P06213 763-1382 limits assumed): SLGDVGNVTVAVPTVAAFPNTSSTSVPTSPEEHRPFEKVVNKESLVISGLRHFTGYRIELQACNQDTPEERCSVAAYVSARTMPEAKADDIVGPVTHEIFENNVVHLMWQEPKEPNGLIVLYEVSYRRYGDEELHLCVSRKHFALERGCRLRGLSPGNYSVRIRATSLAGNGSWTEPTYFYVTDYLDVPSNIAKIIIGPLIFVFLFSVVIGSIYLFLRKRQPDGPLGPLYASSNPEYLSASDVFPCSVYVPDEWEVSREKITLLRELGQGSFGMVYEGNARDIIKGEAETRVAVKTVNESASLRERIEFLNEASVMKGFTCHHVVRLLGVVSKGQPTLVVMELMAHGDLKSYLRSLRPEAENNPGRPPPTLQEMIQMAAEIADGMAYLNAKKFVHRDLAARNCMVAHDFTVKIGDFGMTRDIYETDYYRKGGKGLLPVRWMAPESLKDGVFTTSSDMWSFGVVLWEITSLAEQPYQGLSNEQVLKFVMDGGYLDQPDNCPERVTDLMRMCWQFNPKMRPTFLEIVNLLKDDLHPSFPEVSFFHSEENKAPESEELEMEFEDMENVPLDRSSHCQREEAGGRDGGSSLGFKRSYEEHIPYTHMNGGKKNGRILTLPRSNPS
Conditions: at 0.1 µM
Please provide measured inhibition for the entries that follow.
One number for each entry, in %.

Example entries and their recorded answers appear below.
- smilesStr: "COc1ccc2[nH]c3c4[nH]c5ccc(OC)cc5c4c4c(c3c2c1)C(=O)NC4=O"
  inhibition [%]: 6.91
- smilesStr: "CCCN1CCC(c2ccc(Nc3nc(Nc4cc(F)ccc4C(N)=O)c4cc[nH]c4n3)c(OC)c2)CC1"
  inhibition [%]: 97.5
- smilesStr: "Cc1cccc2c1NC(=O)/C2=N\\Nc1ccc(S(N)(=O)=O)cc1"
  inhibition [%]: 2.44
- smilesStr: "Fc1ccc(-c2nn3ccccc3c2-c2ccncc2)cc1"
  inhibition [%]: 1.92
- smilesStr: "O=C(O[C@H]1CN[C@H](C#Cc2cc3ncnc(Nc4ccc(Cc5ccccc5)cc4)c3s2)C1)N1CCOCC1"
  inhibition [%]: -0.74

Hi there! I need inhibition for each item below, if you can.
1. CNC(=O)c1cc(-c2ccc(F)cc2)cc(-c2ccc(S(=O)(=O)N3CCCC3)cc2)c1N
2. CCc1nn2ncccc2c1-c1ccnc(NC2CC2)n1

Output line:
4.78
2.33

Hi there! I need inhibition for each item below, if you can.
1. CCN(CC)S(=O)(=O)c1ccc(OC)c(Nc2ncc(-c3ccccc3)o2)c1
2. Nc1ncc(-c2cccc(S(N)(=O)=O)c2)c2scc(-c3ccc(F)c(Cl)c3)c12
3. NS(=O)(=O)c1ccc(Nc2ncc(-c3ccccc3)o2)cc1
4. Cc1ccc(O)cc1Nc1ccnc2cc(-c3ccccn3)ccc12
5. COc1cccc(-c2c[nH]c3c(N/N=C/c4ccncc4)ncnc23)c1
6. COc1cc2ncn(-c3cc(OCc4ccccc4C(F)(F)F)c(C(=O)N(C)C)s3)c2cc1OC

Output line:
1: 2.78; 2: -0.93; 3: 2.2; 4: 5.4; 5: 1.17; 6: 2.79

Hi there! I need inhibition for each item below, if you can.
1. CCn1c(-c2nonc2N)nc2cnc(Oc3cccc(NC(=O)c4ccc(N(C)C)cc4)c3)cc21
2. CNC(=O)c1cncc(/C=C/c2ccccc2Cl)c1

Output line:
[2.97, -1.75]
